Reference source: paper PMC10397247

Biological target: T1, APC8401-AA
T1 chain: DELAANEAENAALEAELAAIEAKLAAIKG
Test: two-hybrid library CCmax;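 further: natural log of median RNA to DNA barcode read ratio; higher means stronger binding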
Details: mean of both orientations
reported.metric: interaction score

binder="DKNAALKAELAAIEAELAAIEAKLAANKG [APC5009-AA]" readout_value=-1.26
binder="DEAAALEAKAAALKAKLAAEKAKNAALKG [APC2375-AA]" readout_value=-0.731
binder="DKAAALKAKAAALKAEAAALEAKAAALKG [APC3323-AA]" readout_value=-1.35
binder="DKLAAEKAKNAALKAEAAALEAENAALEG [APC7524-AA]" readout_value=-1.27
binder="DEAAALEAKLAAEKAEAAALEAENAALEG [APC2724-AA]" readout_value=-1.54
binder="DELAAIEAKNAALKAENAALEAEAAALEG [APC542-AA]" readout_value=-1.89
binder="DEAAALEAELAANEAKLAAIKAKLAAIKG [APC2811-AA]" readout_value=-1.58
